Experiment: Solubility by shake-flask method (SFM) with HPLC
Type: physicochemical
Details: phosphate buffered saline (PBS), pH 6.5, PBS; read-out: Solubility Category According to USP Definition
Peptide text beside a SMILES is read from it. * marks the point of attachment. βGlc = OC[C@H]1O[C@@H](*)[C@H](O)[C@@H](O)[C@@H]1O
propertyMeasured: solubility

1. CC[C@H](C)[C@H](NC(=O)[C@H](Cc1ccc(O)cc1)NC(=O)[C@@H](NC(=O)[C@H](CCCNC(=N)N)NC(=O)[C@@H](N)CC(=O)O)C(C)C)C(=O)N[C@@H](Cc1c[nH]cn1)C(=O)N[C@@H](CO[C@@H]1O[C@H](CO)[C@@H](O)[C@H](O)[C@H]1O)C(N)=O [PNA5] (H-DRVYIHS(βGlc)-NH2) = 100 to 1000 mg/mL

----------
Test: Solubility by shake-flask method (SFM) with HPLC
Assay type: physicochemical
Conditions: normal saline (NS), pH 6.5, NS; read-out: Solubility Category According to USP Definition
Peptide text beside a SMILES is read from it. * marks the point of attachment. βGlc = OC[C@H]1O[C@@H](*)[C@H](O)[C@@H](O)[C@@H]1O
propertyMeasured: solubility

1. CC[C@H](C)[C@H](NC(=O)[C@H](Cc1ccc(O)cc1)NC(=O)[C@@H](NC(=O)[C@H](CCCNC(=N)N)NC(=O)[C@@H](N)CC(=O)O)C(C)C)C(=O)N[C@@H](Cc1c[nH]cn1)C(=O)N[C@@H](CO[C@@H]1O[C@H](CO)[C@@H](O)[C@H](O)[C@H]1O)C(N)=O [PNA5] (H-DRVYIHS(βGlc)-NH2) = 100 to 1000 mg/mL

----------
Assay: Solubility by shake-flask method (SFM) with HPLC
Format: physicochemical
Details: H2O; read-out: Solubility Category According to USP Definition
Protocol: The solubilities of Ang (1—7) and PNA5 were determined by the SFM using conditions similar to previously reported by our group and in [39, 40, 41, 42]. […] The pH value of Ang (1—7) and PNA5 suspensions were adjusted to pH 6.5 (pseudo-isoelectric point calculated by MOE software) to determine the zwitterionic species’ solubilities and ensure the predominant presence of the unionized form of Ang (1—7) and PNA5. […]
propertyMeasured: solubility

1) CC[C@H](C)[C@H](NC(=O)[C@H](Cc1ccc(O)cc1)NC(=O)[C@@H](NC(=O)[C@H](CCCNC(=N)N)NC(=O)[C@@H](N)CC(=O)O)C(C)C)C(=O)N[C@@H](Cc1c[nH]cn1)C(=O)N1CCC[C@H]1C(=O)O = 100 to 1000 mg/mL

----------
Test: Solubility by shake-flask method (SFM) with HPLC
Format: physicochemical
Settings: pH 6.5, NS (normal saline); pH 6.5; 25 °C; n = 3; read-out: Solubility
propertyMeasured: solubility (mg/mL)

1) CC[C@H](C)[C@H](NC(=O)[C@H](Cc1ccc(O)cc1)NC(=O)[C@@H](NC(=O)[C@H](CCCNC(=N)N)NC(=O)[C@@H](N)CC(=O)O)C(C)C)C(=O)N[C@@H](Cc1c[nH]cn1)C(=O)N1CCC[C@H]1C(=O)O = 140

----------
Assay: Solubility by shake-flask method (SFM) with HPLC
Assay type: physicochemical
Conditions: Methanol; footnote: S in mMole unit; read-out: LogS (experimental) (converted)
propertyMeasured: solubility (µM)

1. CC[C@H](C)[C@H](NC(=O)[C@H](Cc1ccc(O)cc1)NC(=O)[C@@H](NC(=O)[C@H](CCCNC(=N)N)NC(=O)[C@@H](N)CC(=O)O)C(C)C)C(=O)N[C@@H](Cc1c[nH]cn1)C(=O)N1CCC[C@H]1C(=O)O [Ang (1—7), Asp-Arg-Val-Tyr-Ile-His-Pro] = 1120

----------
Experiment: Solubility by shake-flask method (SFM) with HPLC
Format: physicochemical
Conditions: methanol; footnote: S in mMole unit; read-out: LogS (experimental) (converted)
Peptide text beside a SMILES is read from it. * marks the point of attachment. βGlc = OC[C@H]1O[C@@H](*)[C@H](O)[C@@H](O)[C@@H]1O
propertyMeasured: solubility (µM)

1. CC[C@H](C)[C@H](NC(=O)[C@H](Cc1ccc(O)cc1)NC(=O)[C@@H](NC(=O)[C@H](CCCNC(=N)N)NC(=O)[C@@H](N)CC(=O)O)C(C)C)C(=O)N[C@@H](Cc1c[nH]cn1)C(=O)N[C@@H](CO[C@@H]1O[C@H](CO)[C@@H](O)[C@H](O)[C@H]1O)C(N)=O [PNA5] (H-DRVYIHS(βGlc)-NH2) = 331

----------
Assay: Solubility by shake-flask method (SFM) with HPLC
Format: physicochemical
Details: pH 6.5, H2O; pH 6.5; 25 °C; n = 3; read-out: Solubility
propertyMeasured: solubility

1) CC[C@H](C)[C@H](NC(=O)[C@H](Cc1ccc(O)cc1)NC(=O)[C@@H](NC(=O)[C@H](CCCNC(=N)N)NC(=O)[C@@H](N)CC(=O)O)C(C)C)C(=O)N[C@@H](Cc1c[nH]cn1)C(=O)N1CCC[C@H]1C(=O)O [Ang (1—7), Asp-Arg-Val-Tyr-Ile-His-Pro] = 174 mg/mL

----------
Test: Solubility by shake-flask method (SFM) with HPLC
Format: physicochemical
Conditions: purified water, pH 6.5, H2O; read-out: Solubility Category According to USP Definition
Peptide text beside a SMILES is read from it. * marks the point of attachment. βGlc = OC[C@H]1O[C@@H](*)[C@H](O)[C@@H](O)[C@@H]1O
propertyMeasured: solubility

1. CC[C@H](C)[C@H](NC(=O)[C@H](Cc1ccc(O)cc1)NC(=O)[C@@H](NC(=O)[C@H](CCCNC(=N)N)NC(=O)[C@@H](N)CC(=O)O)C(C)C)C(=O)N[C@@H](Cc1c[nH]cn1)C(=O)N[C@@H](CO[C@@H]1O[C@H](CO)[C@@H](O)[C@H](O)[C@H]1O)C(N)=O [PNA5] (H-DRVYIHS(βGlc)-NH2) = 100 to 1000 mg/mL

----------
Test: Solubility by shake-flask method (SFM) with HPLC
Assay type: physicochemical
Conditions: PBS; footnote: S in mMole unit; read-out: LogS (experimental) (converted)
propertyMeasured: solubility (mM)

1) CC[C@H](C)[C@H](NC(=O)[C@H](Cc1ccc(O)cc1)NC(=O)[C@@H](NC(=O)[C@H](CCCNC(=N)N)NC(=O)[C@@H](N)CC(=O)O)C(C)C)C(=O)N[C@@H](Cc1c[nH]cn1)C(=O)N1CCC[C@H]1C(=O)O [Ang (1—7), Asp-Arg-Val-Tyr-Ile-His-Pro] = 186

----------
Assay: Solubility by shake-flask method (SFM) with HPLC
Type: physicochemical
Conditions: Ethanol; footnote: S in mMole unit; read-out: LogS (experimental) (converted)
propertyMeasured: solubility (µM)

1) CC[C@H](C)[C@H](NC(=O)[C@H](Cc1ccc(O)cc1)NC(=O)[C@@H](NC(=O)[C@H](CCCNC(=N)N)NC(=O)[C@@H](N)CC(=O)O)C(C)C)C(=O)N[C@@H](Cc1c[nH]cn1)C(=O)N1CCC[C@H]1C(=O)O = 178

----------
Test: Solubility by shake-flask method (SFM) with HPLC
Type: physicochemical
Details: ethanol; footnote: S in mMole unit; read-out: LogS (experimental) (converted)
Peptide text beside a SMILES is read from it. * marks the point of attachment. βGlc = OC[C@H]1O[C@@H](*)[C@H](O)[C@@H](O)[C@@H]1O
propertyMeasured: solubility (µM)

1) CC[C@H](C)[C@H](NC(=O)[C@H](Cc1ccc(O)cc1)NC(=O)[C@@H](NC(=O)[C@H](CCCNC(=N)N)NC(=O)[C@@H](N)CC(=O)O)C(C)C)C(=O)N[C@@H](Cc1c[nH]cn1)C(=O)N[C@@H](CO[C@@H]1O[C@H](CO)[C@@H](O)[C@H](O)[C@H]1O)C(N)=O [PNA5] (H-DRVYIHS(βGlc)-NH2) = 115

----------
Assay: Solubility by shake-flask method (SFM) with HPLC
Format: physicochemical
Conditions: methanol; 25 °C; n = 3; read-out: Solubility
Peptide text beside a SMILES is read from it. * marks the point of attachment. βGlc = OC[C@H]1O[C@@H](*)[C@H](O)[C@@H](O)[C@@H]1O
propertyMeasured: solubility (µg/mL)

1. CC[C@H](C)[C@H](NC(=O)[C@H](Cc1ccc(O)cc1)NC(=O)[C@@H](NC(=O)[C@H](CCCNC(=N)N)NC(=O)[C@@H](N)CC(=O)O)C(C)C)C(=O)N[C@@H](Cc1c[nH]cn1)C(=O)N[C@@H](CO[C@@H]1O[C@H](CO)[C@@H](O)[C@H](O)[C@H]1O)C(N)=O [PNA5] (H-DRVYIHS(βGlc)-NH2) = 340

Source listed as paper PMC8398878.
